Test system: MCF10F
Assay Comment: -log10 GI50 (growth inhibition 50%) (-log10(M)); higher = more potent growth inhibition

{"Compound": "Cc1[nH]c2ccccc2c1CCNCc1ccc(/C=C/C(=O)NO)cc1", "-log10 GI50": 6.04}
{"Compound": "O=C1c2ccccc2-[n+]2ccc3c([nH]c4ccccc43)c21", "-log10 GI50": 6.58}
{"Compound": "N.N.[Cl][Pt][Cl] [Cisplatin]", "-log10 GI50": 5.42}

* * *

System: MDAMB157
Assay Comment: -log10 GI50 (growth inhibition 50%) (-log10(M)); higher = more potent growth inhibition
Classify by measured -log10 GI50: T if it is equal to or exceeds 6, F if it is smaller.

{"Compound": "N.N.[Cl][Pt][Cl] [Cisplatin]", "Category": "F"}
{"Compound": "CC(C)C[C@H](NC(=O)[C@H](Cc1ccccc1)NC(=O)c1cnccn1)B(O)O [Bortezomib]", "Category": "T"}
{"Compound": "CNC(=O)c1c(F)cccc1Nc1nc(Nc2cc3c(cc2OC)CCN3C(=O)CN(C)C)nc2[nH]ccc12", "Category": "F"}
{"Compound": "CCN(CC)CCNC(=O)c1c(C)[nH]c(/C=C2\\C(=O)Nc3ccc(F)cc32)c1C [Sunitinib malate]", "Category": "F"}
{"Compound": "O=C(O)C(=O)O.[NH-][C@@H]1CCCC[C@H]1[NH-].[Pt+2] [Oxaliplatin]", "Category": "F"}
{"Compound": "CCCCCN(C)CCC(O)(P(=O)(O)O)P(=O)(O)O [Ibandronate sodium]", "Category": "F"}
{"Compound": "C/C(=C\\c1csc(C)n1)[C@@H]1C[C@@H]2O[C@]2(C)CCC[C@H](C)[C@H](O)[C@@H](C)C(=O)C(C)(C)[C@@H](O)CC(=O)N1 [Ixabepilone]", "Category": "T"}
{"Compound": "CC[C@@]1(O)C(=O)OCc2c1cc1n(c2=O)Cc2cc3c(CN(C)C)c(O)ccc3nc2-1 [Topotecan]", "Category": "T"}
{"Compound": "CN(Cc1cnc2nc(N)nc(N)c2n1)c1ccc(C(=O)N[C@@H](CCC(=O)O)C(=O)O)cc1 [Methotrexate]", "Category": "T"}
{"Compound": "N#Cc1c(-c2ccccc2)cc(-c2cc(Br)ccc2O)[nH]c1=O [TCS PIM-11]", "Category": "F"}
{"Compound": "O=S(=O)(CC1CS1)c1ccc(Oc2ccccc2)cc1 (stereo unspecified) [SB-3CT]", "Category": "F"}
{"Compound": "O=C1c2ccccc2-[n+]2ccc3c([nH]c4ccccc43)c21 [Fascaplysin]", "Category": "T"}
{"Compound": "Nc1[nH]nc2nnc(-c3c(-c4ccccc4)nn4ccccc34)cc12", "Category": "F"}
{"Compound": "COC(=O)Nc1nc2cc(C(=O)c3ccccc3)ccc2[nH]1 [Mebendazole]", "Category": "T"}
{"Compound": "C[C@@H](Oc1cc(-c2cnn(C3CCNCC3)c2)cnc1N)c1c(Cl)ccc(F)c1Cl", "Category": "F"}
{"Compound": "Cc1c(O)cccc1C(=O)N[C@@H](CSc1ccccc1)[C@H](O)CN1C[C@H]2CCCC[C@H]2C[C@H]1C(=O)NC(C)(C)C [Nelfinavir]", "Category": "F"}
{"Compound": "O=c1[nH]cc(F)c(=O)[nH]1 [Fluorouracil]", "Category": "F"}
{"Compound": "CO[C@H]1C[C@@H]2CC[C@@H](C)[C@@](O)(O2)C(=O)C(=O)N2CCCC[C@H]2C(=O)O[C@H]([C@H](C)C[C@@H]2CC[C@@H](O)[C@H](OC)C2)CC(=O)[C@H](C)/C=C(\\C)[C@@H](O)[C@@H](OC)C(=O)[C@H](C)C[C@H](C)/C=C/C=C/C=C/1C [Rapamycin]", "Category": "F"}
{"Compound": "COc1cccc2c1C(=O)c1c(O)c3c(c(O)c1C2=O)C[C@@](O)(C(=O)CO)C[C@@H]3O[C@H]1C[C@H](N)[C@H](O)[C@H](C)O1 [Doxorubicin]", "Category": "T"}
{"Compound": "C[C@@H](Oc1cc(-n2cnc3ccc(CN4CCN(C)CC4)cc32)sc1C(N)=O)c1ccccc1C(F)(F)F", "Category": "T"}
